tested on: P12-Ichikawa; experiment: cell viability relative to DMSO control; higher = less cytotoxic; conditions: RPMI 5 mM glucose + 10% FBS; 48 h; 0.00702 µM
measurementLabel: cell viability
Quote the value and follow it with the unit of measurement.

Solved cases (5 shown):
Briefly, cell viability measured for Cc1cnc(Nc2ccc(OCCN3CCCC3)cc2)nc1Nc1cccc([S+](=O)([O-])NC(C)(C)C)c1 : 110%

get_value(item= COc1cc(N2CCC(N3CCN(C)CC3)CC2)ccc1Nc1ncnc(Nc2ccccc2[S+](=O)([O-])C(C)C)n1 , readout=cell viability) returns 100%

The value of cell viability measured for the molecule COc1ccc2cc(-c3[nH]c(-c4ccc([S+](C)[O-])cc4)nc3-c3ccncc3)ccc2c1 (stereo not drawn) turned out to be 118%

According to the records, this molecule CCC1=C(C)CN(C(=O)NCCc2ccc(S(=O)(=O)NC(=O)N[C@H]3CC[C@H](C)CC3)cc2)C1=O displays cell viability of 95.5%

get_value(item= CCC(=O)O[C@@]1([C@H](C)C[C@H]2[C@@H]3C[C@H](F)\C4=C\C(=O)\C=C/[C@]4(C)[C@@]3(F)[C@@H](O)C[C@]12C)C(=O)SCF , readout=cell viability) returns 86.3%

Next:
The molecule identified as O=C1[O][Pt]2([NH]C3CCCCC3[NH]2)[O]C1=O (stereo not drawn) registered its cell viability at 106%

So, N#Cc1c(C2CCNCC2)cc(-c2c(O)cccc2OCC2CC2)nc1N ? Its cell viability was 123%

The value of cell viability measured for the molecule CC1=C2N=C([NH]C2=CC(=C1)N3CCOCC3)\C4=C(NC[C@@H](O)C5=CC=CC(=C5)Cl)\C=C/NC4=O turned out to be 106%

###

test system: P12-Ichikawa; experiment: cell viability relative to DMSO control; higher = less cytotoxic; settings: RPMI 5 mM glucose + 10% dialyzed FBS; 48 h; 1.71 µM
measurementLabel: cell viability (%)
Output spec: scalar in %, unitless text.

The recorded cell viability for entry CC(C)(O)CNc1nc(Nc2ccnc(C(F)(F)F)c2)nc(-c2cccc(C(F)(F)F)n2)n1 equals 118

Just so you know, measured cell viability for CC1OC(OC/2=C(/OC3=C(C(=CC(=C3)O)O)C2=O)C4=CC=C(O)C=C4)C(O)C(OC(C)=O)C1OC(C)=O (centres undefined) came out at 114

Note to self: cell viability recorded for N=C(N)c1ccc(OCCCCCOc2ccc(C(=N)N)cc2)cc1 was 108

Further cases:
Briefly, cell viability measured for Cc1c(OCC(F)(F)F)ccnc1C[S+]([O-])c1nc2ccccc2[nH]1 (centres undefined) : 112

Notebook: COc1cc(/C=C/C(=O)CC(=O)/C=C/c2ccc(O)c(OC)c2)ccc1O , cell viability read as 113

Looking up c1ccc2c(-c3cnn4cc(-c5ccc(N6CCNCC6)cc5)cnc34)ccnc2c1 , I see its cell viability listed as 138

According to the records, this molecule O=C1[O][Pt]2([NH]C3CCCCC3[NH]2)[O]C1=O (centres undefined) displays cell viability of 113

cell viability reading for C[Se]CCC(N)C(=O)O (centres undefined) : 76.4

Memo: CNC(=O)c1c(F)cccc1Nc1nc(Nc2cc3c(cc2OC)CCN3C(=O)CN(C)C)nc2[nH]ccc12 , reported cell viability: 118
